Provide the reported Emax of each item.
Biological target: hGPR65 (Homo sapiens)
Construct: expressed in transfected cells; host or cells: HeLa (ATCC CCL-2), lentiviral transduction, pLX317
Sequence (Q8IYL9 whole entry): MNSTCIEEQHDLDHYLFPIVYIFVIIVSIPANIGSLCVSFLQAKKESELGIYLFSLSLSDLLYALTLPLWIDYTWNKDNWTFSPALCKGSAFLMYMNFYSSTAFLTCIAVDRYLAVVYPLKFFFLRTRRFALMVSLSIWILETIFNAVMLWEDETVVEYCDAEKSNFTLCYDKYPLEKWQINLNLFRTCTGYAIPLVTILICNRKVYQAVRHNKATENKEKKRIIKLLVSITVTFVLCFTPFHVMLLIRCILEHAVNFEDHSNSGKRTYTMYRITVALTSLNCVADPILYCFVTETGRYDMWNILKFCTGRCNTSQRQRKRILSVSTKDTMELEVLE
Assay: cAMP detection in HeLa expression cell line, hGPR65
Assay type: cell-based
Conditions: HeLa, 2nd hGPR column pair; relative to 100uM forskolin (100%) and DMSO (0%); NA = no activity; read-out: hGPR Max Activity %
Answers are plain numbers, in %.

Example molecules with recorded Emax:
CCOCc1ccc(-c2cc(O)n3ncc(C(=O)Nc4ccc(C)cc4)c3n2)cc1 :: 81.6
Cc1cnc(NC(=O)c2cnn3c(O)cc(-c4ccc(COC(C)C)cc4)nc23)nc1 :: 69.9

Please report Emax for every entry that follows.
1. Cc1ccc(NC(=O)c2cnn3c(O)cc(-c4ccc(N5CCOCC5)nc4)nc23)cc1
2. Cc1ccc(NC(=O)c2cnn3c(O)cc(-c4ccc(N5CCOCC5)c(Cl)c4)nc23)cc1

1: 100; 2: 71.6

---

Target: mGPR65-SmBiT (Mus musculus, UniProt Q61038)
Construct: expressed in transfected cells; host or cells: Expi293F (Gibco), transient transfection
Sequence (Q61038 whole entry): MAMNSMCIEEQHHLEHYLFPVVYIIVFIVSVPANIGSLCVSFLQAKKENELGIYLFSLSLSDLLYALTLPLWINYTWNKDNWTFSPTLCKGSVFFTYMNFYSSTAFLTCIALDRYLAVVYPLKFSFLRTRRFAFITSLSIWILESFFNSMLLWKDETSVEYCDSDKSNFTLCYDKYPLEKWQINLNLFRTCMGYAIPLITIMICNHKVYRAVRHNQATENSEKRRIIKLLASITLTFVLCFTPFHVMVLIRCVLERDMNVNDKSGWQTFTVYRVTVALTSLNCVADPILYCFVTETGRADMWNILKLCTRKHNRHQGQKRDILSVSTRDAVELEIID
Test: Nano-BiT target engagement, LgBiT-mGs recruitment to mGPR65-SmBiT
Format: cell-based
Details: 10 μM
quantity measured: mGs recruitment / engagement of mGPR65

Cc1ccc(NC(=O)c2cnn3c(O)cc(-c4ccc(COC(C)C)cc4)nc23)c(F)c1 [BRD5080] :: showed engagement
Cc1ccc(NC(=O)c2cnn3c(O)cc(-c4ccc(COC(C)C)c(Cl)c4)nc23)cc1 [BRD5059] :: showed engagement
Cc1ccc(NC(=O)c2cnn3c(O)cc(-c4ccc(COC(C)C)cc4)nc23)nc1 [BRD5075] :: showed engagement

---

Molecular target: hGPR65 (Homo sapiens)
Construct: expressed in transfected cells; host or cells: HeLa (ATCC CCL-2), lentiviral transduction, pLX317
Assay: cAMP detection in HeLa expression cell line, hGPR65
Type: cell-based
Conditions: 1.56 μM, pH 7.2
quantity measured: activity for hGPR65 among prioritized molecules

Cc1ccc(NC(=O)c2cnn3c(O)cc(-c4ccc(COC(C)C)cc4)nc23)cc1F [BRD5078] :: highest activity
Cc1ccc(NC(=O)c2cnn3c(O)cc(-c4ccc(COC(C)C)cc4)nc23)nc1 [BRD5075] :: highest activity
Cc1ccc(NC(=O)c2cnn3c(O)cc(-c4ccc(COC(C)C)cc4)nc23)c(F)c1 [BRD5080] :: highest activity
Cc1ccc(NC(=O)c2cnn3c(O)cc(-c4ccc(COC(C)C)c(Cl)c4)nc23)cc1 [BRD5059] :: highest activity

Read the next record carefully.
Note to self: activity for hGPR65 among prioritized molecules recorded for Cc1ccc(NC(=O)c2cnn3c(O)cc(-c4ccc(COC(C)C)cc4)nc23)cc1Cl [BRD5079] was highest activity

---

System: GFP-expressing HeLa cells
Assay: cAMP detection in HeLa expression cell line, GFP control
Type: cell-based, human
Conditions: Homo sapiens, HeLa, SAR cAMP assay, second EC50/Max pair of GFP control columns
Provide the reported pEC50 of each item.
Numbers only, as −log10 of the molar value.

Cc1ccc(NC(=O)c2cnn3c(O)cc(-c4ccc(-c5cccc(C(C)C)c5)cc4)nc23)cc1 :: 5.61

Read the next record carefully.
Note to self: pEC50 recorded for Cc1ccc(NC(=O)c2cnn3c(O)cc(-c4ccc(C5CCCCC5)cc4)nc23)cc1 was 6.34
